Task for the reader: assign each of the following molecules its reported pIC50.
studySystem: C-C chemokine receptor type 8 (Homo sapiens, UniProt P51685)
Sequence (P51685 whole entry): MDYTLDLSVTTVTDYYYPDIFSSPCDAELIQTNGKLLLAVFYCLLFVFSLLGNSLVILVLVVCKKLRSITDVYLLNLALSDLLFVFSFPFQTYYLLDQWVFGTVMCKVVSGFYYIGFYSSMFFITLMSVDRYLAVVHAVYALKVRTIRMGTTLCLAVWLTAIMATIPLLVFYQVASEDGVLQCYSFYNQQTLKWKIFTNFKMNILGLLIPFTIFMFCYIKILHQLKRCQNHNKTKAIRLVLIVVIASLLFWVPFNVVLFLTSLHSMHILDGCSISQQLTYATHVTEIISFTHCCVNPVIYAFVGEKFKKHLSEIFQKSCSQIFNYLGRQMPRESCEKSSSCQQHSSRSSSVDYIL
assayExplanation: Antagonist activity at CCR8 receptor
Scale explanation: pIC50 corresponds to minus log10 of a concentration expressed in moles per litre.

// recorded pIC50 for COc1ccccc1Oc1ccccc1CN1CCC2(CC1)CCN(C(=O)c1cccc[n+]1[O-])CC2 : 7.10

Lookup result for O=C(c1ccncc1)N1CCC2(CCN(Cc3ccccc3Oc3ccccc3)CC2)CC1 ; measured pIC50: 7.48

Record COc1ccccc1Oc1ccccc1CN1CCC2(CC1)CCN(C(=O)c1cc[n+]([O-])cc1)CC2 . Reported pIC50: 6.94

For record COc1ccccc1Oc1cccc(CN2CCC3(CC2)CCN(C(=O)c2ccc(Cl)cc2)CC3)c1 the listed pIC50 is 7.92

COc1ccccc1Oc1ccccc1CN1CCC2(CC1)CCN(C(=O)c1ccncc1)CC2 yielded pIC50 of 7.92

Record O=C(c1cc[n+]([O-])cc1)N1CCC2(CCN(Cc3cccc(Oc4ccccc4)c3)CC2)CC1 , field pIC50: 6.78

Measured pIC50, O=C(c1ccncn1)N1CCC2(CCN(Cc3cccc(Oc4ccccc4)c3)CC2)CC1 : 7.56
